Property: protein stability index; scope: individual variants
B1: TMEM106C (parent)
chain: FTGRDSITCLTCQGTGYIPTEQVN

- Variants of: B1
- Procedure Text: protein stability index of a GFP-peptide fusion (GPS, HEK-293T) (PSI 1-6); higher = more stable;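 note: lentivirally expressed fusions sorted by FACS into six bins by GFP to DsRed ratio, PSI derived from sequencing read proportions per bin multiplied by bin number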
- Particulars: c terminus: a fixed tail appended
Lab note: write the figure by itself, no unit.

# protein stability index of FTGRDSITCLTCQMTGYIPTEQVN [G14M] = 2.91

Field protein stability index (entry FTGRDSIWCLTCQGTGYIPTEQVN [T8W] ) reads 2.22

get_value(item= FTGEDSITCLTCQGTGYIPTEQVN [R4E] , readout=protein stability index) returns 2.59

Noted for FTGRDSITCLTCQGTGSIPTEQVN [Y17S] : its protein stability index reads 1.68
